Attribution: ChEMBL document CHEMBL4270612

pKa for assorted compounds
- TEST PROTOCOL: Dissociation constant, pKa of compound by pH metric method
- Type: physicochemical
Just the number, please.

>>> df
                                   compound  assay_value
0  CCNC(=O)Nc1cc(-c2nc(C(F)(F)F)cs2)c(-c2cc3ncccc3nc2N2[C@@H]3CC[C@H]2C[C@@H](N)C3)cn1          9.2
1  CCNC(=O)Nc1cc(-c2nc(C(F)(F)F)cs2)c(-c2cc3ncccc3nc2N2C3CC2CN(C)C3)cn1          7.6
2  CCNC(=O)Nc1cc(-c2nc(C(F)(F)F)cs2)c(-c2cc3ncccc3nc2N2CC3CCC2CN3)cn1 (centres undefined)          9.2

Below: the item to evaluate.
Problem: Give pKa for the following compound: CCNC(=O)Nc1cc(-c2nc(C(F)(F)F)cs2)c(-c2cc3ncccc3nc2N2C3CCC2CN(C)C3)cn1
Result: 7.8

====

- TEST PROTOCOL: Growth inhibition of human A549 cells
- Format: cell-based
MEASURED PARAMETER: GI50

These solved cases illustrate the format of a correct answer.
>>> df
                               entry_smiles  measured_parameter  assay_value
0  CCNC(=O)Nc1cc(-c2nc(C(F)(F)F)cs2)c(-c2cc3ncccc3nc2N2CCC(N)CC2)cn1                GI50      > 50 µM
1  CCNC(=O)Nc1cc(-c2nc(C(F)(F)F)cs2)c(-c2cc3ncccc3nc2N2[C@@H]3CC[C@H]2C[C@@H](N)C3)cn1                GI50      > 40 µM
2  CCNC(=O)Nc1cc(-c2nc(C(F)(F)F)cs2)c(-c2cc(C(=O)O)ccc2N2C3CCC2CN(C)C3)cn1                GI50      > 25 µM

Problem: Annotate the molecule CCNC(=O)Nc1cc(-c2nc(C(F)(F)F)cs2)c(-c2cc3ncccc3nc2N2CCN(C)CC2)cn1 with its measured GI50.
Result: > 50 µM

====

Catalogue of MIC values
- System: Escherichia coli
- TEST PROTOCOL: Antibacterial activity against tolC deficient Escherichia coli after 24 hrs by broth microdilution method
- Assay type: functional
Give your result in µg/mL as a bare value.

Consider the worked cases shown below.
>>> df
                               entry_smiles  assay_value
0  CCNC(=O)Nc1cc(-c2nc(C(F)(F)F)cs2)c(-c2cc3ncccc3nc2N2CCC(N)CC2)cn1         0.54
1  CCNC(=O)Nc1cc(-c2nc(C3CC3)cs2)c(-c2cc(-c3n[nH]c(=O)o3)cnc2N2C3CCC2CN(C)C3)cn1         0.11
2  CCNC(=O)Nc1cc(-c2nc(C(F)(F)F)cs2)c(-c2cc3ncccc3nc2N2C3CCC2CN(C)C3)cn1         0.14
3  CCNC(=O)Nc1cc(-c2nc(C(F)(F)F)cs2)c(-c2cc3ncccc3nc2N2C3CC2CN(C)C3)cn1         2.21

Problem: Retrieve MIC measured for CCNC(=O)Nc1cc(-c2nc(C(F)(F)F)cs2)c(-c2cc(-c3nnn[nH]3)cnc2N2C3CCC2CN(C)C3)cn1 and print it.
Result: 36

Problem: Report measured MIC; entry is CCNC(=O)Nc1cc(-c2nc(C(F)(F)F)cs2)c(-c2cc(C(=O)O)ccc2N2C3CCC2CN(C)C3)cn1
Result: 1.12

Problem: Give a short answer stating reported MIC for CCNC(=O)Nc1cc(-c2nc(C(F)(F)F)cs2)c(-c2cc3ncccc3nc2N2CCN(C)CC2)cn1 .
Result: 1.08

Problem: Tell us which MIC value is on record for CCNC(=O)Nc1cc(-c2nc(C(F)(F)F)cs2)c(-c2cnc3cccnc3c2)cn1
Result: 0.44
